Biological target: NS3h_1b(con1) (Hepatitis C virus genotype 1b)
Construct: truncated C-terminally His-tagged NS3 proteins lacking the N-terminal protease, called NS3h; His-tag (C); made in house
Sequence (Q9WMX2 1192-1657): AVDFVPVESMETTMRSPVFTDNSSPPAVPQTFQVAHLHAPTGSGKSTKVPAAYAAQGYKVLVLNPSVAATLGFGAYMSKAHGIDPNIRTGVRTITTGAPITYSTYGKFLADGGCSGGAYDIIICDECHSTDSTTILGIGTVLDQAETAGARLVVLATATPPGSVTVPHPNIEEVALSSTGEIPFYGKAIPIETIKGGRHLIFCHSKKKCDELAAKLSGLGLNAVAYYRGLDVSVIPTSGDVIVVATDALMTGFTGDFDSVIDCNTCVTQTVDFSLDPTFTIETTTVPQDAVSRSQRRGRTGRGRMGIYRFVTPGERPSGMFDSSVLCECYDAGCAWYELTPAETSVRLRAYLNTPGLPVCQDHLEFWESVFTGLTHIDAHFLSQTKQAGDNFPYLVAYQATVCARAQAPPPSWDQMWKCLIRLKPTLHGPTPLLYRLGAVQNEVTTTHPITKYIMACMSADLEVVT
Assay: ATP hydrolysis assay (malachite green)
Type: biochemical
pIC50: −log10 of the molar value.
value.kind: pIC50

Example compounds with recorded pIC50:
compound: Cc1cc(C(O)(c2ccc(Nc3ccccc3)cc2)c2ccc(Nc3ccc(S(=O)(=O)O)cc3)cc2)ccc1N (stereo not drawn) [Compound 3, reference compound]
pIC50: < 4.00

compound: Cc1ccc2nc(-c3ccc4nc(-c5ccc6nc(-c7ccc(N)cc7)sc6c5)sc4c3)sc2c1S(=O)(=O)O
pIC50: 4.82

Please give pIC50 for each item listed below.
1. CCN(CC)c1ccc(-c2nc3ccc(C)c(S(=O)(=O)O)c3s2)cc1
2. CCOc1ccc2c(NNC(=O)c3cnccn3)c3c(nc2c1)CCCC3 [Compound 1, reference compound]
3. Cc1ccc2nc(-c3ccc4nc(-c5ccc6nc(-c7ccc8nc(-c9ccc(N)cc9)sc8c7)sc6c5)sc4c3)sc2c1S(=O)(=O)O
4. CN1CCN(Cc2cc(CN3CCN(C)CC3)c(O)c(=O)c(CN3CCN(C)CC3)c2)CC1 [Compound 4, reference compound]
5. Cc1cc2sc(-c3ccc4nc(-c5ccc(N)cc5)sc4c3)nc2cc1S(=O)(=O)O
6. Cc1cc2sc(-c3ccc(N)cc3)nc2cc1S(=O)(=O)O

Response:
1. < 4.00
2. < 4.00
3. 5.30
4. < 4.00
5. < 4.00
6. < 4.00

Query: Returns the measured pIC50 for the input compound. Input: Cc1ccc2nc(-c3ccc(N)cc3)sc2c1S(=O)(=O)O
Response: < 4.00
